# Test system: T1, huFLT3-T227 stably expressed on Ramos cells (human, UniProt P36888 27-993)
# T1 construct: whole, on cells; also called FLT3 WT
# Test description: FACS on cells
Field: FACS geometric mean fold change over Jurkat parental. Provide a value for each of the binders that follow.

input: Fill in the blank: the reported FACS geometric mean fold change over Jurkat parental of Polypeptide No. 292 (scFv, V domains shown, scFv) VH: QVQLVQSGAEVKKPGASVKVSCKASGYTFTSYGISWVRQAPGQGLEWMGWINPNSGGTNYAQKFQGRVTMTRDTSTSTVYMELSSLRSEDTAVYYCARQGGLRDFDYWGQGTLVTVSS VL: DIQMTQSPSSLSASVGDRVTITCRASQSISTYVNWYQQKPGKAPKLLIYDTSSLQSGVPSRFSGSGSGTDFTLTISSLQPEDFATYYCQQSFITPPTFGQGTKLEIKR is ____.
output: 2 to 10 fold

input: Fill in the blank: the reported FACS geometric mean fold change over Jurkat parental of Polypeptide No. 280 (scFv, V domains shown, scFv) VH: QVQLVQSGAEVKKPGASVKVSCKASGYTFTRYYMHWVRQAPGQGLEWMGIINPSGGSTSYAQKFQGRVTMTRDTSTSTVYMELSSLRSEDTAVYYCARGETRSYAPYGMDVWGQGTTVTVSS VL: DIQMTQSPSSLSASVGDRVTITCQASQDISNYLNWYQQKPGKAPKLLIYQASNKDTGVPSRFSGSGSGTDFTLTISSLQPEDFATYYCQQSYSTPPTFGQGTKLEIKR is ____.
output: > 30 fold
